SUBJECT OF TEST: PDGF-Ra (Homo sapiens, UniProt P16234)
Construct: host or cells: G-292 human osteosarcoma cells
Sequence (P16234 24-1089): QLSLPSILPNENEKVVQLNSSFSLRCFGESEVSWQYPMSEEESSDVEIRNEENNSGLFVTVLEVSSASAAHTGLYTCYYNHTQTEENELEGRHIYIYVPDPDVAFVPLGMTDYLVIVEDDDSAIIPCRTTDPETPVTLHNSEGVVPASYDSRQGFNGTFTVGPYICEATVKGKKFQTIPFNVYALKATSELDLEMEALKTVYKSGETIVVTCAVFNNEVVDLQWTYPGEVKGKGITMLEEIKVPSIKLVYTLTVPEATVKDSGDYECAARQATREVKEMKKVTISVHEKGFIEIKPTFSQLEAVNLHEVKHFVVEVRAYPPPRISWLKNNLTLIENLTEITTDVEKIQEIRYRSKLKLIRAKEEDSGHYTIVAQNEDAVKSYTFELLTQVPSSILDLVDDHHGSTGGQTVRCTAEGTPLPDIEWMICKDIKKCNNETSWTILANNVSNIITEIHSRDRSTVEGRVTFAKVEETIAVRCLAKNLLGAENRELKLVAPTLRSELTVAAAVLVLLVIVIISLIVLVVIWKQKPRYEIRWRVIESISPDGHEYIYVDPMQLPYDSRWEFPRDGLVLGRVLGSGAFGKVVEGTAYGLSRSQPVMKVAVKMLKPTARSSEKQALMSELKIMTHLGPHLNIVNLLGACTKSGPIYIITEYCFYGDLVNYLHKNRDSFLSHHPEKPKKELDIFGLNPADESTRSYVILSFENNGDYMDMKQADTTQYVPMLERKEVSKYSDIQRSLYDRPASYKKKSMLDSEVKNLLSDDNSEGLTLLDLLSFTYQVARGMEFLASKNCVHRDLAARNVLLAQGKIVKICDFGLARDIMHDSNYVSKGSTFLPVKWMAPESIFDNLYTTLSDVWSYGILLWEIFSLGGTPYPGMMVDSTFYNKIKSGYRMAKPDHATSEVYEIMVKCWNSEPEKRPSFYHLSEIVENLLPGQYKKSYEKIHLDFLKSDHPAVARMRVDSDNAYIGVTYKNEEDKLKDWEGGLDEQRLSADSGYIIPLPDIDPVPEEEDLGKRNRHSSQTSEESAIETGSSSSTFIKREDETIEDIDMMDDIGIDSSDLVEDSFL
ASSAY REMARKS: Inhibitory activity against PDGF-Ra phosphorylation by PDGF-AA stimulation using G292
Type: cell-based
DETAILS: > means inhibition at indicated concentration not more than 50%, < and << not less than 50%; read-out: PDGF (E) IC50
MEASUREMENT LABEL: IC50 (µM)
Kindly provide the numeric value in µM only, without the unit symbol.

Entry `COc1cc2nccc(Oc3ccc(NC(=O)Oc4cccc(C#N)c4)c(C)c3C)c2cc1OC` ; assay system PDGF-Ra (Homo sapiens, UniProt P16234); IC50 recorded at 0.047

Entry `CCN(CC)CCCNC(=S)Nc1ccc(Oc2ccnc3cc(OC)c(OC)cc23)c(C)c1C` ; assay system PDGF-Ra (Homo sapiens, UniProt P16234); IC50 recorded at 0.054

* * *

SUBJECT OF TEST: PDGF-Ra (Homo sapiens)
Construct: host or cells: G-292 human osteosarcoma cells
ASSAY REMARKS: Inhibitory activity against PDGF-Ra phosphorylation by PDGF-AA stimulation using G292
Type: cell-based
DETAILS: > means inhibition at indicated concentration not more than 50%, < and << not less than 50%; read-out: PDGF (E) IC50
pIC50: −log10 of the molar value.
Give pIC50 for every item shown.

The molecule listed as COc1cc2nccc(Oc3ccc(NCCOc4c(C)cccc4C)c(C)c3C)c2cc1OC [Example 894] has a reported pIC50 of < 7.00

The molecule listed as COc1cc2ncnc(Oc3ccc(NC(=O)NC4CCN(Cc5ccc(C(C)(C)C)cc5)C4)c([N+](=O)[O-])c3)c2cc1OC (centres unmarked) [Example 584] has a reported pIC50 of < 7.00

The molecule listed as COc1cc2ncnc(Oc3ccc(NC(=S)NCCCn4ccnc4)cc3)c2cc1OC [Example 526] has a reported pIC50 of < 7.00

The molecule listed as COc1cc2nccc(Oc3ccc(NC(=S)NC(=O)CCCCl)cc3Cl)c2cc1OC [Example 1198] has a reported pIC50 of > 8.00

The molecule listed as COc1cc2nccc(Oc3ccc(NC(=S)NC(=O)c4ccc5c(c4)OCO5)cc3Cl)c2cc1OC [Example 1126] has a reported pIC50 of < 7.00

The molecule listed as COc1cc2nccc(Oc3ccc(NC(=O)NC4CCN(CC5CCCCC5)C4)cc3)c2cc1OC (centres unmarked) [Example 585] has a reported pIC50 of < 7.00

The molecule listed as COc1cc2ncnc(Oc3ccc(NC(=S)NC(=O)c4ccccn4)cc3)c2cc1OC [Example 1156] has a reported pIC50 of < 7.00

The molecule listed as COc1cc2nccc(Oc3ccc(NC(=S)NC(=O)c4cccc(Br)c4)c(Cl)c3)c2cc1OC [Example 1165] has a reported pIC50 of < 7.00

The molecule listed as CCN(CC)CCCNC(=S)Nc1cc(C)c(Oc2ccnc3cc(OC)c(OC)cc23)cc1C [Example 551] has a reported pIC50 of < 7.00

The molecule listed as COc1ccc(C(=O)NC(=S)Nc2ccc(Oc3ccnc4cc(OC)c(OC)cc34)cc2Cl)cc1 [Example 1173] has a reported pIC50 of < 7.00

The molecule listed as CCOCCC(=O)NC(=S)Nc1ccc(Oc2ccnc3cc(OC)c(OC)cc23)c(Cl)c1 [Example 1071] has a reported pIC50 of < 7.00

The molecule listed as CCN(CCNC(=O)Nc1ccc(Oc2ccnc3cc(OC)c(OC)cc23)c(C)c1C)c1cccc(C)c1 [Example 663] has a reported pIC50 of > 8.00

The molecule listed as COc1cc2ncnc(Oc3ccc(NC(=S)NC(=O)CCc4ccc(C)cc4)cc3)c2cc1OC [Example 722] has a reported pIC50 of > 8.00

The molecule listed as C#CCC(CC)OC(=O)Nc1ccc(Oc2ccnc3cc(OC)c(OC)cc23)cc1 (centres unmarked) [Example 408] has a reported pIC50 of > 8.00

* * *

SUBJECT OF TEST: PDGF-Ra (Homo sapiens, UniProt P16234)
Construct: host or cells: G-292 human osteosarcoma cells
ASSAY REMARKS: Inhibitory activity against PDGF-Ra phosphorylation by PDGF-AA stimulation using G292
Format: cell-based
DETAILS: Pharmacological Test Example 1; > means inhibition at indicated concentration not more than 50%, < and << not less than 50%; read-out: PDGF (E) IC50
IC50 strictly under 20 nM means Condition met; at 20 nM or over means Condition not met.

IC50 strictly < 20 nM for this compound? `COc1cc2ncnc(Oc3ccc(NC(=O)OCCCOc4ccc(Cl)cc4)c(Cl)c3)c2cc1OC`
Condition met

IC50 strictly < 20 nM for this compound? `COc1cc2ncnc(Oc3ccc(NC(=O)OCCCOc4ccc(Cl)cc4)c(C)c3C)c2cc1OC`
Condition not met

IC50 strictly < 20 nM for this compound? CCCC(CC)OC(=O)Nc1ccc(Oc2ncnc3cc(OC)c(OC)cc23)cc1Cl (centres unmarked)
Condition not met

IC50 strictly < 20 nM for this compound? `COc1cc2nccc(Oc3ccc(NC(=O)OCCc4cccc(C(F)(F)F)c4)cc3)c2cc1OC`
Condition met

IC50 strictly < 20 nM for this compound? `CCCCC(CCCC)OC(=O)Nc1ccc(Oc2ccnc3cc(OC)c(OC)cc23)cc1`
Condition not met

IC50 strictly < 20 nM for this compound? `CCCCOC(=O)Nc1ccc(Oc2ccnc3cc(OC)c(OC)cc23)c(C)c1C`
Condition met

IC50 strictly < 20 nM for this compound? `COc1cc2nccc(Oc3ccc(NC(=O)OCCOc4ccccc4F)c(C)c3C)c2cc1OC`
Condition not met

IC50 strictly < 20 nM for this compound? `COc1cc2ncnc(Oc3ccc(NC(=O)OCCCSc4ccccn4)cc3)c2cc1OC`
Condition met

IC50 strictly < 20 nM for this compound? `COc1cc2nccc(Oc3ccc(NC(=O)OCC4CCCCC4)c(C)c3C)c2cc1OC`
Condition met

IC50 strictly < 20 nM for this compound? `CCCCOC(=O)Nc1cc(C)c(Oc2ccnc3cc(OC)c(OC)cc23)cc1C`
Condition met

* * *

Give log10(IC50) for every item shown.
SUBJECT OF TEST: PDGF-Ra (Homo sapiens)
Construct: host or cells: G-292 human osteosarcoma cells
ASSAY REMARKS: Inhibitory activity against PDGF-Ra phosphorylation by PDGF-AA stimulation using G292
Format: cell-based
DETAILS: Pharmacological Test Example 1; > means inhibition at indicated concentration not more than 50%, < and << not less than 50%; read-out: PDGF (E) IC50
All values: log10 IC50 [nM].

The compound listed as COc1cc2ncnc(Oc3ccc(NC(=O)OCCCSc4ccc(Cl)cc4C)c(Cl)c3)c2cc1OC [Example 81] has a reported log10(IC50) of 1.08

The compound listed as COc1cc2nccc(Oc3cc(C)c(NC(=O)OCCCOc4cccc(F)c4)cc3C)c2cc1OC [Example 149] has a reported log10(IC50) of 1.28

The compound listed as COc1cc2ncnc(Oc3ccc(NC(=O)OC(C)c4cccc(N(C)C)c4)cc3)c2cc1OC (stereo not shown) [Example 202] has a reported log10(IC50) of 1.00

The compound listed as COc1cc2nccc(Oc3ccc(NC(=O)OCc4cccc(C)c4)c(C)c3C)c2cc1OC [Example 233] has a reported log10(IC50) of 0.90

The compound listed as COc1cc2nccc(Oc3cc(C)c(NC(=O)OCCOc4ccccc4F)cc3C)c2cc1OC [Example 205] has a reported log10(IC50) of 1.89

The compound listed as COc1cc2nccc(Oc3ccc(NC(=O)OC(C)c4ccccc4F)cc3)c2cc1OC (stereo not shown) [Example 122] has a reported log10(IC50) of 1.04

The compound listed as COc1cc2nccc(Oc3ccc(NC(=O)OC(C)c4cccc(Br)c4)c(C)c3C)c2cc1OC (stereo not shown) [Example 118] has a reported log10(IC50) of 1.52

The compound listed as COc1cc2nccc(Oc3ccc(NC(=O)OCCCSc4ccc(C(C)(C)C)cc4)c(C)c3C)c2cc1OC [Example 73] has a reported log10(IC50) of 1.45

The compound listed as COc1cc2nccc(Oc3ccc(NC(=O)Oc4ccccc4OC)cc3)c2cc1OC [Example 260] has a reported log10(IC50) of 0.78

The compound listed as CCCOC(=O)Nc1ccc(Oc2ncnc3cc(OC)c(OC)cc23)cc1 [Example 314] has a reported log10(IC50) of 1.64

The compound listed as COc1cc2ncnc(Oc3ccc(NC(=O)OCCCSc4ccc(C(C)(C)C)cc4)cc3)c2cc1OC [Example 75] has a reported log10(IC50) of 1.40

The compound listed as COc1cc2nccc(Oc3ccc(NC(=O)Sc4ccc(Cl)cc4C)cc3)c2cc1OC [Example 176] has a reported log10(IC50) of 1.30

The compound listed as COc1cc2ncnc(Oc3ccc(NC(=O)OC(C)c4ccc(F)cc4)c(Cl)c3)c2cc1OC (stereo not shown) [Example 106] has a reported log10(IC50) of 1.08

The compound listed as COc1cc2ncnc(Oc3ccc(NC(=O)OCc4ccc(C(C)(C)C)cc4)c(Cl)c3)c2cc1OC [Example 61] has a reported log10(IC50) of 1.00

The compound listed as COc1cc2ncnc(Oc3ccc(NC(=O)OCCc4cccc(C(F)(F)F)c4)c(Cl)c3)c2cc1OC [Example 86] has a reported log10(IC50) of 1.11

The compound listed as COc1ccc(OC)c(COC(=O)Nc2ccc(Oc3ccnc4cc(OC)c(OC)cc34)c(C)c2C)c1 [Example 68] has a reported log10(IC50) of 1.11

The compound listed as COc1cc2ncnc(Oc3ccc(NC(=O)OC4CCCC4)c(C)c3C)c2cc1OC [Example 393] has a reported log10(IC50) of 1.91

The compound listed as COc1cc2ncnc(Oc3ccc(NC(=O)OCCCOc4cccc(Cl)c4)c(C)c3C)c2cc1OC [Example 212] has a reported log10(IC50) of 1.45
